- EXPERIMENTAL DETAILS: soluble fraction after stress (log2 fold change); higher = more stays soluble; pooled small domains, quantitative proteomics
- CONDITION PARAMETERS: stress: pH 4
OBSERVATION TYPE: soluble fraction (log2)
Respond with the number and no other words.

# ENTRY SEQUENCE, NUMBER
rows = [
    ("HMELARLRPELDGNDIMRILGVPPGPVVGRAYTYLLELRINQGELGRERVTQLLLDWAAAEGISA", -1.8),
    ("HMEYYDDEELDRFRGVEADAYDEDAVNEFRDVLYTLQEIEVAGWLRSLQLRAINLPDELKDEAFLI", -2.01),
    ("HMGQGAASAPLRELGVDPVSEKQMVLKDGRFGPYVTDGETNASLRKGDEVETITDERASELLQMRRDAGPS", 0.0347),
    ("HMGAATQADIARVQELLNRLGYDAGSPDGLMGPRTRDAILEYQLTEGLETTGTVTRETLASLEARL", -0.939),
    ("HMHGESISVPDLRGQKMERMPAFLADKHLQFKVIDSLFDLEKNPGTVLEQDPAPNSKVKEGRTIYLTVNAQ", -0.118),
    ("HMSTTGIVKWFNEEKGFGFITQDQGGADVFVHYRAIASEGFKTLAEGQKVSFEVEQGQKGLQAANVQA", -0.948),
    ("HMNDTSLIIDNLMLKLGNNIKNFSEIYSLLRKNLAEYGEEFIKSKVDYVLKNFNDNIEENLKKLLTE", -0.601),
    ("HMIKKLDIEPIIKSVVDDFNNIYKLKRGITISYLNDGKNKYFINGIENRIEQIIANLLDNSISFSEDNKDV", 0.122),
]

Entry HMSNYLKSVEVFDPITNKWSYVSAMKVRRGYVAVVATMDRLYAIGGYDGENYLSTVEMYNPDTN , soluble fraction (log2) reported as 0.0787

The reported soluble fraction (log2) of the sequence HMKNIFDWLKQINYHKQPADSFTEKDWELFNSYMVHRFMSMNREFIEVVNYVQEMPPQEKILIYNIYREF was 0.25
